The reader will find reported MIC values listed item by item below.
System: E. faecium strains with polC mutations (A1281T, F1276I, F1276L, F1276S)
Test: Cross-resistance MIC of reduced susceptible E. faecium strains
Format: cell-based, Enterococcus faecium
Conditions: Enterococcus faecium, read-out: Measured MIC, polC A1281T, strain Efa036, selected on 2 mg/L ACX-641
Give just the numeric value; µg/mL need not be written.

{"columns": ["Compound", "MIC / µg/mL"],
 "data": [
  ["CCCCCCCCCC(=O)N[C@@H](Cc1c[nH]c2ccccc12)C(=O)N[C@H](CC(N)=O)C(=O)N[C@@H](CC(=O)O)C(=O)N[C@@H]1C(=O)NCC(=O)N[C@@H](CCCN)C(=O)N[C@@H](CC(=O)O)C(=O)N[C@H](C)C(=O)N[C@@H](CC(=O)O)C(=O)NCC(=O)N[C@H](CO)C(=O)N[C@@H]([C@H](C)CC(=O)O)C(=O)N[C@@H](CC(=O)c2ccccc2N)C(=O)O[C@@H]1C [DAP, daptomycin]", 4]
]}

Please turn your attention to the following entry.
# query: MIC of entry O=c1[nH]c(NCc2ccc3c(c2)OC(F)(F)O3)nc2c(F)nn(CCO)c12 [ACX-801]
16
